Recorded TGI values for a group of compounds are listed next.
# Tested on: SN12C renal
# Test Details: NCI tumour cell line growth inhibition, 48 h

{"Compound": "CN(C)CCCN=c1c2ccccc2n(C)c2[nH]c(=O)n(C)c(=O)c12", "TGI": "> 51.6 µM"}

Which TGI reading was recorded for the compound COc1ccc(C2NC3=C(CCCC3)N2)cc1 ?
> 100 µM

Now the same for O=C1CCc2ccccc2O1
> 100 µM

And then COc1ccc2c(c1)C(=O)c1c-2c(OCCN2CCCCC2)nc2ccc(OC)cc12 , what is it?
10.1 µM

Now try O=C1[C@H](O)[C@@H]2CCC[C@@]23CCCN13 .
> 100 µM

N/C(=N/N=C/c1cccc(F)c1)NO , same question.
> 100 µM

What do you get for COc1ccc(C=NCCCN=Cc2ccc(OC)cc2O)c(O)c1 ?
90.6 µM

Try this compound too: CSc1nc(SC)c2c(C)cn(C3OC(C)C(O)C(O)C3O)c2n1 (stereo not given)
> 100 µM

Same thing, different compound: [Au+].c1c[n-]cn1.c1ccc([PH+](c2ccccc2)c2ccccc2)cc1
27.4 µM
